# TARGET_OR_SYSTEM: T1, hu N(A2-B2)A-avi-His (human, biotin on the avi tag where used biotinylated)
# T1 construct: chimeric soluble antigen; also called hu N(A2-B2)A-avi-His B; human CEA (A2 domain)
# T1 chain: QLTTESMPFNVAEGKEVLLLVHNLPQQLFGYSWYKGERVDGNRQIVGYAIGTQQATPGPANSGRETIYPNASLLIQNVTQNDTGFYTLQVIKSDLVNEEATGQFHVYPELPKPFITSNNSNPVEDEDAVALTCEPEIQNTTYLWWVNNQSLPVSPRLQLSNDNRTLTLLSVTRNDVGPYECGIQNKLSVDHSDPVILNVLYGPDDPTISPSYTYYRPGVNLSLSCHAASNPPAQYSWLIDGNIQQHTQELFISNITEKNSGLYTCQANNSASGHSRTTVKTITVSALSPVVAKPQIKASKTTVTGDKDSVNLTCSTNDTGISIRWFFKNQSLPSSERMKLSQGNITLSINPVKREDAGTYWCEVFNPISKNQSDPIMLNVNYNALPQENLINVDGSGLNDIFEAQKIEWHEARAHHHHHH
# ASSAY_PROTOCOL: SPR (ProteOn XPR36), Fab in bacterial supernatant, biotinylated antigen on NLC chip
ASSAY_READOUT: koff

BINDER	TEST_VALUE
P006.038 Fab (Fab, V domains shown, Fab from E. coli (supernatant or IMAC-purified); Flag tag; also called CEA (P006.038)) VH: EVQLLESGGGLVQPGGSLRLSCAASGFTFTDYYMNWVRQAPGKGLEWLGFIGNKANAYTTEYSASVKGRFTISRDKSKNTLYLQMNSLRAEDTATYYCTRDRGIRFGFDYWGQGTTVTVSS VL: EIVLTQSPATLSLSPGERATLSCRASSSVTYIHWYQQKPGQAPRSWIYATSNLASGIPARFSGSGSGTDFTLTISSLEPEDFAVYYCQHWSSVPPTFGQGTKLEIK	7.41e-05 s⁻¹
P005.103 Fab (Fab, V domains shown, Fab from E. coli (supernatant or IMAC-purified); Flag tag; also called CEA (P005.103)) VH: EVQLLESGGGLVQPGGSLRLSCAASGFTFTDYYMNWVRQAPGKGLEWLGFIGNKANAYTTEYSASVKGRFTISRDKSKNTLYLQMNSLRAEDTATYYCTRDRGIRFYFDYWGQGTTVTVSS VL: EIVLTQSPATLSLSPGERATLSCRASSSVTYIHWYQQKPGQAPRSWIYATSNLASGIPARFSGSGSGTDFTLTISSLEPEDFAVYYCQHWSSISPTFGQGTKLEIK	5.37e-05 s⁻¹
P005.102 Fab (Fab, V domains shown, Fab from E. coli (supernatant or IMAC-purified); Flag tag; also called CEA (P005.102)) VH: EVQLLESGGGLVQPGGSLRLSCAASGFTFTDYYMNWVRQAPGKGLEWLGFIGNKANAYTTEYSASVKGRFTISRDKSKNTLYLQMNSLRAEDTATYYCTRDRGIRFQFDYWGQGTTVTVSS VL: EIVLTQSPATLSLSPGERATLSCRASSSVTYIHWYQQKPGQAPRSWIYATSNLASGIPARFSGSGSGTDFTLTISSLEPEDFAVYYCQHWSSKSPTFGQGTKLEIK	4.24e-05 s⁻¹
P001.177 Fab (Fab, V domains shown, Fab from E. coli (supernatant or IMAC-purified); Flag tag; also called CEA (P001.177)) VH: EVQLLESGGGLVQPGGSLRLSCAASGFYFTDYYMNWVRQAPGKGLEWLGFISNKANAYTTEYSASVKGRFTISRDKSKNTLYLQMNSLRAEDTATYYCTRDRGLRFYFDYWGQGTTVTVSS VL: EIVLTQSPATLSLSPGERATLSCRASSSVTYIHWYQQKPGQAPRSWIYATSNLASGIPARFSGSGSGTDFTLTISSLEPEDFAVYYCQHWSSKPPTFGQGTKLEIK	9.81e-05 s⁻¹
P005.097 Fab (Fab, V domains shown, Fab from E. coli (supernatant or IMAC-purified); Flag tag; also called CEA (P005.097)) VH: EVQLLESGGGLVQPGGSLRLSCAASGFTFTDYYMNWVRQAPGKGLEWLGFIGNKANAYTTEYSASVKGRFTISRDKSKNTLYLQMNSLRAEDTATYYCTRDRGLRFSFDYWGQGTTVTVSS VL: EIVLTQSPATLSLSPGERATLSCRASSSVTYIHWYQQKPGQAPRSWIYATSNLASGIPARFSGSGSGTDFTLTISSLEPEDFAVYYCQHWSSQPPTFGQGTKLEIK	8.87e-05 s⁻¹
P002.139 Fab (Fab, V domains shown, Fab from E. coli (supernatant or IMAC-purified); Flag tag; also called CEA (P002.139)) VH: EVQLLESGGGLVQPGGSLRLSCAASGFYFTDYAMNWVRQAPGKGLEWLGVISNKANAYTTEYSASVKGRFTISRDKSKNTLYLQMNSLRAEDTATYYCTRDRGLRFYFDYWGQGTTVTVSS VL: EIVLTQSPATLSLSPGERATLSCHASSSVTYIHWYQQKPGQAPRSWIYATSNLASGIPARFSGSGSGTDFTLTISSLEPEDFAVYYCQHWSSKPPTFGQGTKLEIK	6.47e-05 s⁻¹
A5H1EL1D Fab (phagemid-derived) (Fab, V domains shown, Flag tag; also called parental humanized clone A5H1EL1D) VH: EVQLLESGGGLVQPGGSLRLSCAASGFTFTDYYMNWVRQAPGKGLEWLGFIGNKANAYTTEYSASVKGRFTISRDKSKNTLYLQMNSLRAEDTATYYCTRDRGLRFYFDYWGQGTTVTVSS VL: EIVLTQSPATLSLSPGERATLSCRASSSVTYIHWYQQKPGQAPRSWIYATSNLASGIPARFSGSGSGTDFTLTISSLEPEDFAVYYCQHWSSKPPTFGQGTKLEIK	0.00031 s⁻¹
